Would you kindly list IC50 for each of these molecules?
Biological target: L858R/T790M EGFR (Homo sapiens, UniProt P00533, L858R/T790M)
Sequence (P00533 25-1210 T790M/L858R): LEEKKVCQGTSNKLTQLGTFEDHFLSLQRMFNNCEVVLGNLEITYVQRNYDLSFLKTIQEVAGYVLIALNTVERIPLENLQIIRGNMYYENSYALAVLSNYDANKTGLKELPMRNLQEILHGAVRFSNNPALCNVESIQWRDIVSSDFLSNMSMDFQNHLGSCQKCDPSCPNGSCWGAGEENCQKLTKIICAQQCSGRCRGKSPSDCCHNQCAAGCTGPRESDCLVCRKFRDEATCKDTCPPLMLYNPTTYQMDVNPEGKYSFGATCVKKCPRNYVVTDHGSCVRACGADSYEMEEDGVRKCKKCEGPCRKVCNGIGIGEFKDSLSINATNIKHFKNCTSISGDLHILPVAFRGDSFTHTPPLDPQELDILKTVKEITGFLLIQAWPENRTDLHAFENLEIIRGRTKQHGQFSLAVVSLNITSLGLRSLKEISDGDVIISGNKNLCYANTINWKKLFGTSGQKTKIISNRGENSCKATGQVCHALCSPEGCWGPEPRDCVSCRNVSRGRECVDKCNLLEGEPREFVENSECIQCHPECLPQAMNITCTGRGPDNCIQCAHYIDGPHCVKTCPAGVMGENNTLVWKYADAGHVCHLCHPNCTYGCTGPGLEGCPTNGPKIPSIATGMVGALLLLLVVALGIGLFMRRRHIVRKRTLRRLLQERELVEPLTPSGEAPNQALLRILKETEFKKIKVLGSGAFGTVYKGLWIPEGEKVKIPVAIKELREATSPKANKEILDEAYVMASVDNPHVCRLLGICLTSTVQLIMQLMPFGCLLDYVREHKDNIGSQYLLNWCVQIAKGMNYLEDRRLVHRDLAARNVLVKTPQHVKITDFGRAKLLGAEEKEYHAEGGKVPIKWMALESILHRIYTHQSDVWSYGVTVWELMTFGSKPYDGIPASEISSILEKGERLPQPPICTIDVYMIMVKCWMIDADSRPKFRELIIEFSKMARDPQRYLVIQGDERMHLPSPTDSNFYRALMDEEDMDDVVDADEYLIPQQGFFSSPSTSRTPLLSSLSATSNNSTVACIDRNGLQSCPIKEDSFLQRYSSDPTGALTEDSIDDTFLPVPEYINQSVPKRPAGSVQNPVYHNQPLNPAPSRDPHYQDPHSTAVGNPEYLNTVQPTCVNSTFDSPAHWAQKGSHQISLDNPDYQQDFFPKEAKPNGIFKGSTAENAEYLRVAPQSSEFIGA
Assay: EGFR inhibitory activity, ADP-Glo kinase assay
Type: biochemical
Details: ADP-Glo
One number for each entry, in nM.

item_smiles=Cc1ncc(CN2CCN(Cc3cccnc3)CC2)c2cc(C(=O)c3ccc(Br)cc3)oc12.Cl.Cl value_reported=91

# input for lookup
Give me measured IC50, please, for this molecule: Cc1ncc(CN2CCN(Cc3cccnc3)CC2)c2cc(C(=O)c3ccc4c(c3)OCCO4)oc12
10.5

###

Would you kindly list melting point for each of these molecules?
Counter-ions that a name gives are not always drawn.

Study these solved cases before continuing.
molecule=COc1ccc(C(=O)c2cc3c(CO)cnc(C)c3o2)cc1 metric_name="melting point" value_reported="147 to 148 °C"
molecule=Cc1ncc(Cn2ccnc2)c2cc(C(=O)c3ccc(Br)cc3)oc12.Cl metric_name="melting point" value_reported="278 to 280 °C"
molecule="Cc1ncc(CN2CCN(Cc3cccnc3)CC2)c2cc(C(=O)c3ccc4c(c3)OCCO4)oc12 (as salt: hydrochloride)" metric_name="melting point" value_reported="224 to 227 °C"
molecule=Cc1ncc(CN2CCN(C=O)CC2)c2cc(C(=O)c3ccc(Br)cc3)oc12.Cl metric_name="melting point" value_reported="233 to 239 °C"
molecule=Cc1ncc(CN2CCN(Cc3ccccn3)CC2)c2cc(C(=O)c3ccc(Br)cc3)oc12.Cl.Cl metric_name="melting point" value_reported="224 to 225 °C"
molecule=Cc1ncc(CN2CCN(CCC#N)CC2)c2cc(C(=O)c3ccc(Br)cc3)oc12 metric_name="melting point" value_reported="129 to 132 °C"
molecule=Cc1ncc(Cn2cnc(Cl)c2Cl)c2cc(C(=O)c3ccc(Br)cc3)oc12 metric_name="melting point" value_reported="183 to 185 °C"

# input for lookup
Give me measured melting point, please, for this molecule: Cc1ncc(CN2CCN(Cc3cccnc3)CC2)c2cc(C(=O)c3ccc(Br)cc3)oc12.Cl.Cl
243 to 247 °C
